biological target: full-length human PRMT6 (Flag- and His-tagged) (Homo sapiens, UniProt Q96LA8)
Sequence (Q96LA8 with tags, fused parts or gaps): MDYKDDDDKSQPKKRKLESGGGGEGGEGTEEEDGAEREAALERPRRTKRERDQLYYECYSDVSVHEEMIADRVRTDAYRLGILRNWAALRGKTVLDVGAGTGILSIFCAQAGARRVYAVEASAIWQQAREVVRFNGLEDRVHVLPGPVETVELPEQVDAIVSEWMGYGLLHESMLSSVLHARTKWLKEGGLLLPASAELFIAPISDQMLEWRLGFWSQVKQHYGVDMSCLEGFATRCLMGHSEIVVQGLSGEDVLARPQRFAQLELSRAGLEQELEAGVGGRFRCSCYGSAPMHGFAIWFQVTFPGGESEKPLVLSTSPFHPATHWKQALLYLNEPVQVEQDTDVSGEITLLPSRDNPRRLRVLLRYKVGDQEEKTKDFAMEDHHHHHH
pIC50: −log10 of the molar value.
Measurement Name: pIC50

# Compound, pIC50
data = [
    ("Cc1[nH]nc(C2CCC3(CC2)CC(C)(C)CO3)c1CN(C)CCN (centres unmarked)", 6.88),
    ("CNCCN(C)Cc1cncn1[C@H]1CC[C@]2(CC1)CC(C)(C)CO2", 5.55),
    ("CC[C@]12CC[C@](CC)(C[C@@H](c3n[nH]cc3CN(C)CCNC)C1)O2", 6.88),
    ("CNCCN(C)Cc1nocc1[C@H]1CC[C@]2(CC1)CC(C)(C)CO2", 5.45),
]

a = CCOCC1(COCC)CCC(c2nn(C)cc2CN(C)CCN)CC1
b = CNCCN(C)Cc1cn(C)nc1C1CCC(C)(C)[C@@H](C(=O)NCC(C)C)C1 (some centres unmarked)
c = CN(CCN)Cc1c[nH]nc1[C@H]1CC[C@]2(CC1)CC(C)(C)CO2
d = CNCCN(C)Cc1c[nH]nc1C1CC(COCC2CC2)CC(COCC2CC2)C1 (centres unmarked)
e = CNCCN(C)Cc1nn(C)cc1[C@H]1CC[C@@]2(CC1)CC(C)(C)CO2
Exam item: Please rank these compounds by pIC50 in descending order. Would you mind listing the labels in the order asked for?
Marked response: c, a, e, d, b
(c: 7.89, a: 7.24, e: 6.91, d: 6.13, b: 5.79)

1 = CNCCN(C)Cc1nn[nH]c1[C@H]1CC[C@@]2(CC1)CC(C)(C)CO2
2 = CNCCN(C)Cc1c[nH]nc1C1CCC2(CCC(OC)CC2)CC1 (centres unmarked)
Exam item: Compare reported pIC50 values for 1 and 2 . Which is lower? Answer by quoting the chosen item's label.
Marked response: 1

I = CCOCC1(COCC)CCC(c2nn(C)cc2CN(C)CCNC)CC1
II = CNCCN(C)Cc1c[nH]nc1C1=CCC(COCC(F)(F)F)CC1 (centres unmarked)
Exam item: // pick min by pIC50: I , II State your choice using its label.
Marked response: I
